biological target: T1, human PD-1 (#PD1-H82E4, AcroBiosystems) (human, UniProt Q15116 25-167); experiment: SPR, PD-1 on captured IgG1
T1 construct: bought
T1 sequence (Q15116 25-167 limits assumed): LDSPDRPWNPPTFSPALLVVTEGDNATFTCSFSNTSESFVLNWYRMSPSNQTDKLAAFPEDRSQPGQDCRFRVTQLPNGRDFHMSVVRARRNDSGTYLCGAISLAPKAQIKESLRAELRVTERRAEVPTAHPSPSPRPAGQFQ
pKd: −log10 of the molar value.
reported-endpoint: pKd

{"binder": "NWL270 (antibody, human IgG1, V domains shown, human IgG1) VH: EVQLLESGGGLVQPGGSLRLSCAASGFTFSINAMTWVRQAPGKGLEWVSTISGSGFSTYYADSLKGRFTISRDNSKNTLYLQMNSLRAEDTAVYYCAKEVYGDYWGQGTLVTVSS VL: RSVLTQPPSASGTPGQRVSISCSGASSNIGSQSVFWYQQLPGTAPKLLIYSNNQRPSGVPDRFSGSKSGTSASLAISGLRSEDEADYYCAAWDDSLSNWVFGGGTKLTVL", "assay-value": 9.64}
{"binder": "KWH245 (antibody, human IgG1, V domains shown, human IgG1) VH: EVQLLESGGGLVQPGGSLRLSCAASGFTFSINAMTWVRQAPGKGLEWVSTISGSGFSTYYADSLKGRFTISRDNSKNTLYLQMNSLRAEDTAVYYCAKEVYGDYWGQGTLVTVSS VL: RSVLTQPPSASGTPGQRVSISCSGASSNIGSQSVFTYQQLPGTAPKLLIYSNNQRPSGVPDRFSGSKSGTSASLAISGLRSEDEADYYCAAWDDSLSIWVFGGGTKLTVL", "assay-value": 9.74}
{"binder": "JZW468 (antibody, human IgG1, V domains shown, human IgG1) VH: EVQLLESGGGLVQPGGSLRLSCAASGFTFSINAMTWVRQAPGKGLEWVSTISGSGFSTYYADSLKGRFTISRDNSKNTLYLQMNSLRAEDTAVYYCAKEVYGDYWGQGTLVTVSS VL: RSVLTQPPSASGTPGQRVSISCSGASSNIGSQSVFWYQQLPGTAPKLLIYSNNQRPSGVPDRFSGSKSGTSASLAISGLRSEDEADYYCAAWDDQLSIWVFGGGTKLTVL", "assay-value": 9.20}
